assay: Metabolic stability in rat liver microsome; type: ADME; conditions: microsomes; further: time not given here
Recorded Stability, one value per entry.

Compound: CNC(=O)c1cc(C)c(C(OC(C)(C)C)C(=O)O)c2c1CC[C@]21CC[C@@H](C)CC1 (stereo partly specified)
Stability, %: 98
//
Compound: Cc1cc(C(=O)NC2CCCCC2)c2c(c1[C@@H](OC(C)(C)C)C(=O)O)[C@]1(CC2)CC[C@@H](C)CC1
Stability, %: 100
//
Compound: Cc1cc(C(=O)NC2CCCCCC2)c2c(c1C(OC(C)(C)C)C(=O)O)[C@]1(CC2)CC[C@@H](C)CC1 (stereo partly specified)
Stability, %: 87
//
Compound: Cc1ccc2c(c1C(OC(C)(C)C)C(=O)O)[C@]1(CC2)CC[C@@H](C)CC1 (mixture of isomers)
Stability, %: 51
//
Compound: Cc1cc(C(=O)NC2CCCCC2)c2c(c1C(OC(C)(C)C)C(=O)O)[C@]1(CC2)CC[C@@H](C)CC1 (stereo partly specified)
Stability, %: 99
//
Compound: Cc1cc(NC(=O)CC(C)C)c2c(c1C(OC(C)(C)C)C(=O)O)[C@]1(CC2)CC[C@@H](C)CC1 (stereo partly specified)
Stability, %: 97
